# measurement-target: TYK2 (Homo sapiens, UniProt P29597)
# Sequence (P29597 whole entry): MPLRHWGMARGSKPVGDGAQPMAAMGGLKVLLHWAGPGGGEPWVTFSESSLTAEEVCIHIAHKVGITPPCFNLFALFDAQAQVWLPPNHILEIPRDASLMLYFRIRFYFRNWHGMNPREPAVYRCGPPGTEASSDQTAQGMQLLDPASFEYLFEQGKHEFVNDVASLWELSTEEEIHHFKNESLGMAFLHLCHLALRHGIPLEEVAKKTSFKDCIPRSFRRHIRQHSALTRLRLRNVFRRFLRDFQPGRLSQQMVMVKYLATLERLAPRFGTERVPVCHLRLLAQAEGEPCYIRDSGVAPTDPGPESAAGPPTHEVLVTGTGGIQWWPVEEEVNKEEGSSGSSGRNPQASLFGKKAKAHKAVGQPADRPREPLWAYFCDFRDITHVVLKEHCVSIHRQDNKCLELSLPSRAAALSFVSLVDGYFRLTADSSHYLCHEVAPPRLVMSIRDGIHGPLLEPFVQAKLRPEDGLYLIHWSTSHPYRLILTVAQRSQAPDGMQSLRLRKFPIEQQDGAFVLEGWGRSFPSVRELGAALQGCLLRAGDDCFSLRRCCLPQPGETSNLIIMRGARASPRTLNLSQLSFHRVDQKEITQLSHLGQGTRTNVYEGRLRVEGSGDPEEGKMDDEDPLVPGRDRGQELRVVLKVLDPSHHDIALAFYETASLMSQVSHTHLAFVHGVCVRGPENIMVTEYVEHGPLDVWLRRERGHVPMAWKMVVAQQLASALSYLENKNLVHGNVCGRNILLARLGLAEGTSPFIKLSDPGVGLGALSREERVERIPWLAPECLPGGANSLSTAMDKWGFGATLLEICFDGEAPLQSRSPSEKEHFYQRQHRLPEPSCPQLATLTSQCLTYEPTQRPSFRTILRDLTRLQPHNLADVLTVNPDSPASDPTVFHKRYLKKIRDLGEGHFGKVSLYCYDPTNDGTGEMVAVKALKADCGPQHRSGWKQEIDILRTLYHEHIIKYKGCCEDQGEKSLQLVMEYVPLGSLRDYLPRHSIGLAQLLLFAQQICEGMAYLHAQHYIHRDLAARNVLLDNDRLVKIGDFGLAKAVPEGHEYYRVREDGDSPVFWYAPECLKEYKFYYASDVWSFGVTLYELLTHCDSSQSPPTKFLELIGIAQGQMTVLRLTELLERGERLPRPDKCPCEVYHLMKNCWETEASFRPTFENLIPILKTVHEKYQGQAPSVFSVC
pIC50: −log10 of the molar value.
property: pIC50

>>> experimental_result("O=C(NO)c1ccc(CNc2nc3cccc(-c4ccc5c(c4)OCO5)n3n2)cc1")
6.07

====

# pIC50 per record follows
# measurement-target: UniProt:P23458
# Sequence (P23458 whole entry): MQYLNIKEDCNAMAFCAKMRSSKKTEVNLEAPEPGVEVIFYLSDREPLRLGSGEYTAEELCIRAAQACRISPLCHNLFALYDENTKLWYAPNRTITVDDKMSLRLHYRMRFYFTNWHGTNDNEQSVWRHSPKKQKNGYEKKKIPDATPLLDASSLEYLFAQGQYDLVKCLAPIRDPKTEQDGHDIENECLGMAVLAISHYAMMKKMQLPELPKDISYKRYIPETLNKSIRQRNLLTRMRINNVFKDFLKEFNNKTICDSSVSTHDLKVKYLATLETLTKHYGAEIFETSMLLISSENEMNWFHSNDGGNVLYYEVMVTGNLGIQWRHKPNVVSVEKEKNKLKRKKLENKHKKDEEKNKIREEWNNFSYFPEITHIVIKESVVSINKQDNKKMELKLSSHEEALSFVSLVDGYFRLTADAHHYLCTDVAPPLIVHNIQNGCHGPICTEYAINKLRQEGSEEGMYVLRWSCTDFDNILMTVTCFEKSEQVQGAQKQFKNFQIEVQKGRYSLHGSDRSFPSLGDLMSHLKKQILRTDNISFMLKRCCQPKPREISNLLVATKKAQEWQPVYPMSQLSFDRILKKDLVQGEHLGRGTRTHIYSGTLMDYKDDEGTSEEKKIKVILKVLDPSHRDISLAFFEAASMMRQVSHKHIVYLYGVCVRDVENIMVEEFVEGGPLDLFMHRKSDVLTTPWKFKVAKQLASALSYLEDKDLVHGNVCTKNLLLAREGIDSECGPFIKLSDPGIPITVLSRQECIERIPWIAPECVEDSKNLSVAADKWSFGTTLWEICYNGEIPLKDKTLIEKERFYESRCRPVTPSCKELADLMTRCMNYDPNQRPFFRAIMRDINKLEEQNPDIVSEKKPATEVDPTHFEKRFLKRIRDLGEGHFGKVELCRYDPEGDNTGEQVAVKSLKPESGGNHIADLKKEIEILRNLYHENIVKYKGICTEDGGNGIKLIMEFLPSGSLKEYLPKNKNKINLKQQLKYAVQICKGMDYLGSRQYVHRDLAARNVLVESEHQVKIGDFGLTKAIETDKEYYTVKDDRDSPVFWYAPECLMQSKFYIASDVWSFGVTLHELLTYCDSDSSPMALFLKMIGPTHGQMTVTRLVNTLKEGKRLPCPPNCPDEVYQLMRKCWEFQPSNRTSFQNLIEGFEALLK
pIC50: −log10 of the molar value.
property: pIC50

>>> experimental_result("COc1ccc(-c2cccc3nc(NCc4ccc(C(=O)NO)cc4)nn23)cc1 [Compound 16b]")
6.84
>>> experimental_result("Cc1cccc(-c2cccc3nc(NCc4ccc(C(=O)NO)cc4)nn23)c1 [Compound 16f]")
6.50
>>> experimental_result("O=C(NO)c1ccc(CNc2nc3cccc(-c4ccc(Cl)c(Cl)c4)n3n2)cc1 [Compound 16k]")
6.41
>>> experimental_result("O=C(NO)c1ccc(CNc2nc3cccc(-c4ccccc4Cl)n3n2)cc1 [Compound 16i]")
6.40
>>> experimental_result("O=C(NO)c1ccc(CNc2nc3cccc(-c4ccc(C(F)(F)F)cc4)n3n2)cc1 [Compound 16l]")
6.34
>>> experimental_result("COc1cccc(-c2cccc3nc(NCc4ccc(C(=O)NO)cc4)nn23)c1 [Compound 16c]")
6.72
